System: LXRb:RXRa (NR concentration 270 nM, RXRa partner concentration 90 nM)
Assay: PBM binding z-score (relative to random genomic background probes); higher = stronger binding; sequences stand for … in GC…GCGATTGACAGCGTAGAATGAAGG
Each item that follows carries a reported PBM binding z-score.
measured.property: PBM binding z-score

# sequence.code, measured.target, measured.property, numeric.value
records = [
    ("TCTTGTAGATCAATAGAGGTTATGAAAGTGCGCT", "LXRb:RXRa (NR concentration 270 nM, RXRa partner concentration 90 nM)", "PBM binding z-score", 1.68),
    ("GCTAGTTGGTCAGTAGAAGGTCACACACCGGTCG", "LXRb:RXRa (NR concentration 270 nM, RXRa partner concentration 90 nM)", "PBM binding z-score", 2.24),
    ("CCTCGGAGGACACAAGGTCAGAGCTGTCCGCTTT", "LXRb:RXRa (NR concentration 270 nM, RXRa partner concentration 90 nM)", "PBM binding z-score", 1.25),
    ("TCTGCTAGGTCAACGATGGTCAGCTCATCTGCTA", "LXRb:RXRa (NR concentration 270 nM, RXRa partner concentration 90 nM)", "PBM binding z-score", 1.81),
    ("TTGAGTAGGTTAGGGGCATTCAGAATGGCGTCGA", "LXRb:RXRa (NR concentration 270 nM, RXRa partner concentration 90 nM)", "PBM binding z-score", 1.42),
    ("GCTTGTAGATCACGGTTAAGAAAGACTAAGCTAA", "LXRb:RXRa (NR concentration 270 nM, RXRa partner concentration 90 nM)", "PBM binding z-score", -0.369),
    ("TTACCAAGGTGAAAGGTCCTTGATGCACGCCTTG", "LXRb:RXRa (NR concentration 270 nM, RXRa partner concentration 90 nM)", "PBM binding z-score", 1.06),
    ("CCGAGTAGGTTATCGGGCATTCAGGCAACGGTGA", "LXRb:RXRa (NR concentration 270 nM, RXRa partner concentration 90 nM)", "PBM binding z-score", -0.0205),
    ("GTACCAAGGTGAATAGGTCGCTGATGAGTAGGCG", "LXRb:RXRa (NR concentration 270 nM, RXRa partner concentration 90 nM)", "PBM binding z-score", 0.0295),
    ("TCACATAGGTAAACAGGTGAAAGTCCGTAAGTTA", "LXRb:RXRa (NR concentration 270 nM, RXRa partner concentration 90 nM)", "PBM binding z-score", 0.803),
    ("AGAAAGAGGGCACGCTGAGTTGATAGCAGAGTAG", "LXRb:RXRa (NR concentration 270 nM, RXRa partner concentration 90 nM)", "PBM binding z-score", 0.624),
    ("TGAAAGAGGTTATAAGATCAGGGAACGTTGCAAA", "LXRb:RXRa (NR concentration 270 nM, RXRa partner concentration 90 nM)", "PBM binding z-score", 1.33),
]

----------
Test system: RARb homodimer (NR concentration 270 nM)
Assay: PBM binding z-score (relative to random genomic background probes); higher = stronger binding; sequences stand for … in GC…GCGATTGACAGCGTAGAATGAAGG
Each entry below lists one item and its recorded PBM binding z-score value.
measured.property: PBM binding z-score

# sequence.code, measured.property, numeric.value
measured = [
    ("CCGAGTAGGTTATGGGGCATTCACGCAACGGTGA", "PBM binding z-score", 0.898),
    ("AGTCAAAGTTCAGGATGAGGTAACGTAAAGCACG", "PBM binding z-score", 3.38),
    ("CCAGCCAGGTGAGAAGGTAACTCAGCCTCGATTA", "PBM binding z-score", 0.235),
    ("CCTAACGGGTCACTGACAGGTTATAGCATTTGGA", "PBM binding z-score", 2.94),
    ("CCAACTGGGGCAAAGGTTACCATACTCAGTACGA", "PBM binding z-score", 2.56),
    ("TCTATTAGTTGAAGGGTAACCGACGAGTCCGTTT", "PBM binding z-score", 0.751),
    ("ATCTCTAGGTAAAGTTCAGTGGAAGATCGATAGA", "PBM binding z-score", 2.55),
    ("ATCTCCAGGTAACAAGTTCAGTGAAAGAGAGGAC", "PBM binding z-score", 2.16),
    ("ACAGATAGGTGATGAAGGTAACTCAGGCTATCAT", "PBM binding z-score", 0.0763),
    ("CATACAGGGTCAGCCAGGCCAGAGTAGGGACGGC", "PBM binding z-score", 3.14),
    ("CGTCCAAGGTCAGCAGGTCTGTGAAAGCGACGTG", "PBM binding z-score", 3.23),
    ("CGAACTGGGTCAAGGACAGTGAATCTCCGCACGC", "PBM binding z-score", 2.55),
]
